Each recorded value in this set is attributed to a melting point compilation (Tetko et al.; mined from patent text by program, amines drawn as free bases though some values may be those of a salt).

Catalogue of compounds with associated melting point

Guide cases for melting point, answers given:
compound | endpoint-value
O=C(N[C@H]1CC[C@H](CCN2CCC(c3cccc4c3CCO4)CC2)CC1)c1ccc(C(F)(F)F)cc1 | 228 °C
O=C(NCCO)/C(=C/c1ccc(OC(F)(F)F)cc1)NC(=O)c1ccc(OCCC2CC2)cc1 | 142 to 144 °C
COc1cc(C(=O)NS(=O)(=O)c2ccccc2C)ccc1Cc1c(Cl)n(C)c2ccc(CCNC(=O)N(C)C)cc12 | 222 to 224 °C
O=C(NC(Cc1ccc(-c2cccc3ccccc23)cc1)C(=O)O)C(CS)Cc1ccccc1 (stereo not drawn) | 158 °C
Cn1ncc2c1-c1c(SC(C)(C)C)sc(C(=O)O)c1CC2 | 277 to 278 °C

Requested read-out: melting point. Entry: COc1ccc(C(O)(c2ccc(OC)cc2)C(O)(c2ccccc2)c2ccccc2)cc1
163 to 165 °C

What do we get for Cn1c(C(F)(F)F)cc(=O)n(-c2cc(C=O)c(Cl)cc2Cl)c1=O ?
117 to 120 °C

What do we get for O=C(NN=C(Cc1ccccc1)c1ccccn1)OCc1ccccc1 ?
155 °C
